Catalogue of compounds with associated pIC50
- system under test: Full-length inactive AKT1 (Homo sapiens (Human), UniProt P31749)
- Sequence (P31749 whole entry): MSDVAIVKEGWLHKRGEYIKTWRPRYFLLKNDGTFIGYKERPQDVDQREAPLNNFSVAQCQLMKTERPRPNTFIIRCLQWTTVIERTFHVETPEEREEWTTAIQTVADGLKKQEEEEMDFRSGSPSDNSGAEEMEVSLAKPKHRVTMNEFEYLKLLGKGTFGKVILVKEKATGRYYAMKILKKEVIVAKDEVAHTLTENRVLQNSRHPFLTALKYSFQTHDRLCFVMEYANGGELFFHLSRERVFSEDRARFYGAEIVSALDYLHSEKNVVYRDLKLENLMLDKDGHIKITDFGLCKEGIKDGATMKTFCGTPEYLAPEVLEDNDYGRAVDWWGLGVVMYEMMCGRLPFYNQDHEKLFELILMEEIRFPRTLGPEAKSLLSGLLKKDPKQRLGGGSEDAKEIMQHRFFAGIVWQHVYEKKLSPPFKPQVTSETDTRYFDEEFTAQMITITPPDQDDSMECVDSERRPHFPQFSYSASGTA
- experiment description: Inactive Akt Alpha Screen Assay
- setup conditions: 8 nM inactive Akt1 activated by PDK1 and MAPKAPK2, lipid vesicles, 50 μM ATP, biotinylated crosstide; read-out: Akt1 biochemical assay IC50 AlphaScreen crosstide
In textbook form, pIC50 equals minus log to base ten of the concentration in mol/L.

// solved cases for pIC50 follow
compound structure string: CC(=O)OC(C)(C)C(=O)Nc1cccc(-c2ccc3nc(-c4cccnc4N)n(-c4ccc(C5(N)CCC5)cc4)c3n2)c1
observed: 8.35
--
compound structure string: CC(C)(C)C(=O)N1CCN(c2cccc(-c3ccc4nc(-c5cccnc5N)n(-c5ccc(C6(N)CCC6)cc5)c4n3)c2)CC1
observed: 8.47
--
compound structure string: CN(C)C(=O)C1CCN(c2cccc(-c3ccc4nc(-c5cccnc5N)n(-c5ccc(C6(N)CCC6)cc5)c4n3)c2)CC1
observed: 8.60
--
compound structure string: CCN(CC)C(=O)C1CCN(c2cccc(-c3ccc4nc(-c5cccnc5N)n(-c5ccc(C6(N)CCC6)cc5)c4n3)c2)CC1
observed: 8.38
--
compound structure string: CCC(=O)N1CCN(c2cccc(-c3ccc4nc(-c5cccnc5N)n(-c5ccc(C6(N)CCC6)cc5)c4n3)c2)CC1
observed: 8.67
--
compound structure string: CC(C)(O)C(=O)Nc1cccc(-c2ccc3nc(-c4cccnc4N)n(-c4ccc(C5(N)CCC5)cc4)c3n2)c1
observed: 8.79

Exercise: Need pIC50 of `Nc1ncccc1-c1nc2ccc(-c3cccc(N4CCC(C(=O)N5CCOCC5)CC4)c3)nc2n1-c1ccc(C2(N)CCC2)cc1` , thanks.
Key: 8.47

* * *

- system under test: Full-length inactive AKT1 (Homo sapiens (Human), UniProt P31749)
- experiment description: Thermal Shift Assay (protein-ligand binding)
- setup conditions: Kd at 25° C. calculated using constant ligand binding enthalpy −15 kcal/mol; 15 μM compound, ANS dye
measurement type: Kd (nM)
Lab book: enter the figure in nM, no units written.

compound: CCN(CC)C(=O)C1CCN(c2cccc(-c3ccc4nc(-c5cccnc5N)n(-c5ccc(C6(N)CCC6)cc5)c4n3)c2)CC1 [Cmpd 10]
observed: 0.2
//
compound: CC(C)(C)C(=O)N1CCN(c2cccc(-c3ccc4nc(-c5cccnc5N)n(-c5ccc(C6(N)CCC6)cc5)c4n3)c2)CC1 [Cmpd 16]
observed: 1.7
//
compound: Nc1ncccc1-c1nc2ccc(-c3cccc(N4CCC(C(=O)N5CCOCC5)CC4)c3)nc2n1-c1ccc(C2(N)CCC2)cc1 [Cmpd 11]
observed: 0.2

Exercise: Field request: Kd | item: Nc1ncccc1-c1nc2ccc(Sc3ccccc3)nc2n1-c1ccc(C2(N)CCC2)cc1 [Cmpd 21]
Key: 110

Exercise: Similarly, Nc1ncccc1-c1nc2ccc(-c3cccc(NC(=O)C4CC4)c3)nc2n1-c1ccc(C2(N)CCC2)cc1 [Cmpd 3] ?
Key: 7

Exercise: Now try Nc1ncccc1-c1nc2ccc(-c3cccc(N4CCN(C(=O)C5CC5)CC4)c3)nc2n1-c1ccc(C2(N)CCC2)cc1 [Cmpd 14] .
Key: 1.1

Exercise: Try CC(C)C(=O)N1CCN(c2cccc(-c3ccc4nc(-c5cccnc5N)n(-c5ccc(C6(N)CCC6)cc5)c4n3)c2)CC1 [Cmpd 15] next.
Key: 1.1

* * *

- Tested on: cells
- experiment description: Cell proliferation / viability GI50 (MTS assay or ATP quantitation assay)
- Type: cell-based
- setup conditions: 72 hours treatment; cell line and assay (MTS or ATP quantitation) not stated
Param label: returns yes when GI50 < 800 µM, returns no otherwise, including exact equality.

Exercise: Below 800 µM on GI50? Entry `Nc1ncccc1-c1nc2ccc(-c3cccc(N4CCN(C(=O)C5CC5)CC4)c3)nc2n1-c1ccc(C2(N)CCC2)cc1`
Key: yes

Exercise: Another compound: `CC(C)(C)C(=O)Nc1cccc(-c2ccc3nc(-c4cccnc4N)n(-c4ccc(C5(N)CCC5)cc4)c3n2)c1`
Key: yes

Exercise: Please answer likewise for `C[C@H](O)CNC(=O)c1cccc(-c2ccc3nc(-c4cccnc4N)n(-c4ccc(C5(N)CCC5)cc4)c3n2)c1`
Key: no

Exercise: `C[C@@H](O)CNC(=O)c1cccc(-c2ccc3nc(-c4cccnc4N)n(-c4ccc(C5(N)CCC5)cc4)c3n2)c1` ?
Key: no

Exercise: Further, for `CCC(=O)N1CCN(c2cccc(-c3ccc4nc(-c5cccnc5N)n(-c5ccc(C6(N)CCC6)cc5)c4n3)c2)CC1` ?
Key: yes

Exercise: Query `Nc1ncccc1-c1nc2ccc(-c3cccc(NC(=O)C4CC4)c3)nc2n1-c1ccc(C2(N)CCC2)cc1` next
Key: yes

Exercise: Note, next up: `Nc1ncccc1-c1nc2ccc(Nc3ccccc3)nc2n1-c1ccc(C2(N)CCC2)cc1`
Key: no

* * *

- system under test: Full-length inactive AKT1 (Homo sapiens (Human), UniProt P31749)
- experiment description: Thermal Shift Assay (protein-ligand binding)
- setup conditions: Kd at 25° C. calculated using constant ligand binding enthalpy −15 kcal/mol; 15 μM compound, ANS dye
Decide using Kd alone. Strictly below 3 nM: label 1. Equal to or above 3 nM: label 0.

Exercise: hey, is Kd for `CC(C)(O)C(=O)Nc1cccc(-c2ccc3nc(-c4cccnc4N)n(-c4ccc(C5(N)CCC5)cc4)c3n2)c1` lower than 3 nM or not?
Key: label 1

Exercise: Subsequent entry: `C[C@@H]1CN(c2cccc(-c3ccc4nc(-c5cccnc5N)n(-c5ccc(C6(N)CCC6)cc5)c4n3)c2)C[C@H](C)O1`
Key: label 0

Exercise: Now the same for `CN(C)C(=O)C1CCN(c2cccc(-c3ccc4nc(-c5cccnc5N)n(-c5ccc(C6(N)CCC6)cc5)c4n3)c2)CC1`
Key: label 1

Exercise: For `CCC(=O)N1CCN(c2cccc(-c3ccc4nc(-c5cccnc5N)n(-c5ccc(C6(N)CCC6)cc5)c4n3)c2)CC1` then?
Key: label 1

Exercise: Could you do the same for `Nc1ncccc1-c1nc2ccc(Oc3ccccc3)nc2n1-c1ccc(C2(N)CCC2)cc1` , please?
Key: label 0

Exercise: Consider next the compound `CC(=O)OC(C)(C)C(=O)Nc1cccc(-c2ccc3nc(-c4cccnc4N)n(-c4ccc(C5(N)CCC5)cc4)c3n2)c1` in the same way.
Key: label 1

Exercise: Also `Nc1ncccc1-c1nc2ccc(-c3cccc(N4CCS(=O)(=O)CC4)c3)nc2n1-c1ccc(C2(N)CCC2)cc1` ?
Key: label 1

Exercise: Thanks! And `Nc1ncccc1-c1nc2ccc(Nc3ccc(N4CCOCC4)cc3)nc2n1-c1ccc(C2(N)CCC2)cc1` ?
Key: label 0

Exercise: Same for `CC(C)(C)C(=O)Nc1cccc(-c2ccc3nc(-c4cccnc4N)n(-c4ccc(C5(N)CCC5)cc4)c3n2)c1`
Key: label 1

* * *

- system under test: Full-length inactive AKT1 (Homo sapiens (Human), UniProt P31749)
- experiment description: Inactive Akt Alpha Screen Assay
- setup conditions: 8 nM inactive Akt1 activated by PDK1 and MAPKAPK2, lipid vesicles, 50 μM ATP, biotinylated crosstide; read-out: Akt1 biochemical assay IC50 AlphaScreen crosstide
measurement type: IC50 (nM)
The response must be a number in nM with no trailing unit.

compound structure string: C[C@@H]1CN(c2cccc(-c3ccc4nc(-c5cccnc5N)n(-c5ccc(C6(N)CCC6)cc5)c4n3)c2)C[C@H](C)O1
measurement type: IC50
observed: 4.36
//
compound structure string: Nc1ncccc1-c1nc2ccc(-c3cccc(N4CCS(=O)(=O)CC4)c3)nc2n1-c1ccc(C2(N)CCC2)cc1
measurement type: IC50
observed: 1.79
//
compound structure string: CC(C)(C)C(=O)Nc1cccc(-c2ccc3nc(-c4cccnc4N)n(-c4ccc(C5(N)CCC5)cc4)c3n2)c1
measurement type: IC50
observed: 1.7

Exercise: Give its IC50 value. Item: `Nc1ncccc1-c1nc2ccc(Nc3ccc(N4CCOCC4)cc3)nc2n1-c1ccc(C2(N)CCC2)cc1`
Key: 8.72

Exercise: Would you kindly repeat that for `Nc1ncccc1-c1nc2ccc(-c3cccc(N4CCN(C(=O)C5CC5)CC4)c3)nc2n1-c1ccc(C2(N)CCC2)cc1` ?
Key: 1.84

Exercise: Next molecule up: `Nc1ncccc1-c1nc2ccc(Nc3ccccc3)nc2n1-c1ccc(C2(N)CCC2)cc1`
Key: 3.77

Exercise: Same again, this time with `Nc1ncccc1-c1nc2ccc(-c3cccc(NC(=O)C4CC4)c3)nc2n1-c1ccc(C2(N)CCC2)cc1`
Key: 3.09
